Assay: chemical genetic growth profiling, strain panel (AID 1159580);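 further: tested at 20 µM; growth read once vehicle control cultures reached saturation at 30 °C; 1 = growth at the plate median or of vehicle wells; lower values mean less growth of the strain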
Conditions: S. cerevisiae deletion strains, growth OD, locus YDR502C, strain sam2, stronger effect = lower value
The campaign covered roughly 5,500 compounds. About 2,000 (36%) were called active. About 18% were inconclusive and are not listed. The list shows a part of the results.
Listed here: items and their measured normalized growth.
recorded endpoint: normalized growth

1) CCOC(=O)/C=C(\C)OP(=O)(OC)OC	0.996
2) CC1(C)C2CC[C@]3(C)C(C(=O)C=C4[C@@H]5C[C@@](C)(C(=O)O)CC[C@]5(C)CC[C@]43C)[C@@]2(C)CC[C@@H]1OC(=O)CCC(=O)O (stereo not given in full)	0.99
3) COc1cccc2c1CCC1CC(=O)CCC21C (stereo not given)	0.912
4) COC(=O)c1c(Cl)c(Cl)c(C(=O)OC)c(Cl)c1Cl	0.999
5) Cc1ccc2c(c1)CC[C@H]1CC(=O)CC[C@]21C	0.968

---

Listed here: items and their measured normalized growth.
Assay: chemical genetic growth profiling, strain panel (AID 1159580);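 further: tested at 20 µM; growth read once vehicle control cultures reached saturation at 30 °C; 1 = growth at the plate median or of vehicle wells; lower values mean less growth of the strain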
Details: S. cerevisiae deletion strains, growth OD, locus YNL271C, strain bni1, stronger effect = lower value
Out of some 5,500 compounds screened, about 2,000 (36%) were called active. Not shown: some 18% with an inconclusive outcome. This is one part of the list.
recorded endpoint: normalized growth

1. NC(N)=NOCC[C@H](N)C(=O)O	0.973
2. CO[C@H]1C[C@H](O[C@H]2[C@H](C)[C@@H](OC3O[C@H](C)C[C@H](N(C)C)[C@H]3O)[C@@H](C)C[C@]3(CO3)C(=O)[C@H](C)[C@@H](O)[C@@H](C)[C@@H](C)OC(=O)[C@@H]2C)O[C@@H](C)[C@@H]1O (some centres undefined)	1.01
3. C/C=C(/C(=C/C)c1ccc(O)cc1)c1ccc(O)cc1	0.899
4. C=CC(C)(C)c1c2c(c(O)c3c(=O)c4ccc(O)c(O)c4oc13)C=CC(C)(C)O2	0.992

---

Test: chemical genetic growth profiling, strain panel (AID 1159580);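 further: tested at 20 µM; growth read once vehicle control cultures reached saturation at 30 °C; 1 = growth at the plate median or of vehicle wells; lower values mean less growth of the strain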
Conditions: S. cerevisiae deletion strains, growth OD, locus YMR219W, strain ESC1, stronger effect = lower value
Out of some 5,500 compounds screened, about 2,000 (36%) were called active. Roughly 18% stayed inconclusive and do not appear here. This is one part of the list.
recorded endpoint: normalized growth

1. CC12CCC(C1)C(C)(C)C2NC(=O)c1cccs1 (stereo not given)	0.988 (inactive)
2. COc1ccccc1CC(=O)NC1CCN(Cc2ccccc2)CC1	1.01 (inactive)
3. Cc1ccc(Oc2ccc(C)cc2)cc1	1 (inactive)
4. Cc1ccc2cc(C)c(C)cc2c1	1.01 (inactive)
5. Cc1nn(-c2ccccc2)nc1C(=O)NC(=O)N1CCCC1	0.997 (inactive)

---

Test: chemical genetic growth profiling, strain panel (AID 1159580);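 further: tested at 20 µM; growth read once vehicle control cultures reached saturation at 30 °C; 1 = growth at the plate median or of vehicle wells; lower values mean less growth of the strain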
Details: S. cerevisiae deletion strains, growth OD, locus YDR318W, strain mcm21, stronger effect = lower value
In all, about 5,500 compounds went through this assay and about 2,000 (36%) were called active. Not shown: some 18% with an inconclusive outcome. Some of the results follow.
recorded endpoint: normalized growth

1) COc1ccc(-c2coc3c(OC)c(OC)ccc3c2=O)cc1	0.988
2) COc1ccc(-c2coc3c(OC)c(OC)cc(OC)c3c2=O)cc1	0.978
3) CN=C(NC#N)NCCSCc1nc[nH]c1C	0.999
4) COc1ccc(-c2coc3c(OC)c(OC)cc(O)c3c2=O)cc1	0.948

Numbers sourced from PubChem BioAssay AID1159580.
